Where do the numbers come from? From patent US20250320253A1.

test description: MTP solubility in PBS and PBS/LDS
Format: physicochemical
test settings: Solubilization vehicle PBS 100%
Protocol: The solubility of the MTPs was tested either in phosphate buffered saline (PBS) or in a mixture of PBS and lithium dodecyl sulfate (LDS).
Ends that are not written are not given here.
assay metric: Measured concentration (µM)

* TLPAIVGIGGGGGELLLVIVEVLIYEEEEE [RATI] | 224
* TLPAIVGIGGGGGLLLEVIVEVLIAYEEEEE [DRAUPNIR] | 260
* TLPAITGLVGGVGLLLEVIVEVAYEEEEE [GUNGNIR] | 248
* TLPAIGVITLVGLGVLELVAEGVYEEEEE [HODR, reference compound] | 189
* TLPAIVGIGGGGGLLLLVIVAVLIAYKRK [MTP-PlexA1, reference compound] | 0
